Hello, the source for this data is PubChem BioAssay AID2060900, in case you need it.

# Tested on: 521955-158-R2-J5-PDC complex spheroids, viability
# EXPERIMENTAL DETAILS: Anticancer human tumor 521955-158-R2-J5-PDC patient-derived pancreatic carcinoma cell line growth inhibition [RAS]; active means viability on the fitted dose curve at most 10% of control; inactive means the rest
# STUDY CONDITIONS: second compound 0.316 µM; first compound 10 µM
Bench note: report the call from Yes (active), No (inactive)

Input: What was the test verdict on Cc1nc(N2CCC3(CC2)COC(C)C3N)c(CO)nc1Sc1ccnc(N)c1Cl (stereo unspecified) + C#Cc1c(F)ccc2cc(O)cc(-c3ncc4c(N5CC6CCC(C5)N6)nc(OCC56CCCN5CC(F)C6)nc4c3F)c12 ?
Output: No

Input: What was the test verdict on CC1(O)CCCC1n1c(=O)c(C(F)F)cc2cnc(NC3CCN(S(C)(=O)=O)CC3)nc21 (stereo unspecified) + C=CC(=O)N1CCN(c2nc(OCC3CCCN3C)nc3c(F)c(-c4nc(N)cc(C)c4C(F)(F)F)c(Cl)cc23)C(C)C1 ?
Output: No

Input: What was the test verdict on CCC(CC)c1cc(NC2CCC(N)C2)n2nccc2n1 (stereo unspecified) + C=CC(=O)N1CCN(c2nc(OCC3CCCN3C)nc3c(F)c(-c4nc(N)cc(C)c4C(F)(F)F)c(Cl)cc23)C(C)C1 ?
Output: Yes

Input: What was the test verdict on CC(=O)OC12COC1CC(O)C1(C)C(=O)C(O)C3=C(C)C(OC(=O)C(O)C(NC(=O)OC(C)(C)C)c4ccccc4)CC(O)(C(OC(=O)c4ccccc4)C21)C3(C)C (stereo unspecified) + C#Cc1c(F)ccc2cc(O)cc(-c3ncc4c(N5CC6CCC(C5)N6)nc(OCC56CCCN5CC(F)C6)nc4c3F)c12 ?
Output: No

Input: What was the test verdict on CC(Nc1ccc2c(c1)OCCn1cc(N3C(=O)OCC3C(F)F)nc1-2)C(N)=O (stereo unspecified) + C#Cc1c(F)ccc2cc(O)cc(-c3ncc4c(N5CC6CCC(C5)N6)nc(OCC56CCCN5CC(F)C6)nc4c3F)c12 ?
Output: No

Input: What was the test verdict on C[C@@H](NC(=O)c1ncnc(N)c1Cl)c1ncc(C(=O)Nc2cc(C(F)(F)F)c(Cl)cn2)s1 + C#Cc1c(F)ccc2cc(O)cc(-c3ncc4c(N5CC6CCC(C5)N6)nc(OCC56CCCN5CC(F)C6)nc4c3F)c12 ?
Output: No

====

# Tested on: 521955-158-R2-J5-PDC complex spheroids, viability
# EXPERIMENTAL DETAILS: Anticancer human tumor 521955-158-R2-J5-PDC cell line growth inhibition [RAS];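 further: spheroids also contain HUVEC endothelial cells and mesenchymal stem cells as stroma; compound exposure lasted seven days before the viability read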
# STUDY CONDITIONS: second compound 0.03 µM; first compound 0.0316 µM; stronger effect = lower value
Hi there, I'd appreciate the recorded viability, T/C for every entry that follows.

Input: Entry O=C(c1ccc(F)c(F)c1Nc1ccc(I)cc1F)N1CC(O)([C@@H]2CCCCN2)C1 + CCn1c(-c2cccnc2C(C)OC)c2c3cc(ccc31)N1CCOC(CC(NC(=O)C(C(C)C)N(C)C(=O)C3(F)CCN(C(=O)C#CC(C)(C)N(C)C)CC3)C(=O)N3CCCC(N3)C(=O)OCC(C)(C)C2)C1 needs its viability, T/C filled in; supply it.
Output: 51.6%

Input: Entry CCN1CCN(Cc2ccc(Nc3ncc(F)c(-c4cc(F)c5nc(C)n(C(C)C)c5c4)n3)nc2)CC1 + CCn1c(-c2cccnc2C(C)OC)c2c3cc(ccc31)N1CCOC(CC(NC(=O)C(C(C)C)N(C)C(=O)C3(F)CCN(C(=O)C#CC(C)(C)N(C)C)CC3)C(=O)N3CCCC(N3)C(=O)OCC(C)(C)C2)C1 needs its viability, T/C filled in; supply it.
Output: 76.9%

Input: Entry Nc1ccn(C2OC(CO)C(O)C2(F)F)c(=O)n1 (centres undefined) + CCn1c(-c2cc(N3CCN(C)CC3)cnc2C(C)OC)c2c3cc(ccc31)-c1csc(n1)CC(NC(=O)C1CC1C)C(=O)N1CCCC(N1)C(=O)OCC(C)(C)C2 needs its viability, T/C filled in; supply it.
Output: 18.3%

Input: Entry CCN1CCN(Cc2ccc(Nc3ncc(F)c(-c4cc(F)c5nc(C)n(C(C)C)c5c4)n3)nc2)CC1 + CCn1c(-c2cc(N3CCN(C)CC3)cnc2C(C)OC)c2c3cc(ccc31)-c1csc(n1)CC(NC(=O)C1CC1C)C(=O)N1CCCC(N1)C(=O)OCC(C)(C)C2 needs its viability, T/C filled in; supply it.
Output: 17%

====

# System: 521955-158-R2-J5-PDC complex spheroids, viability
# EXPERIMENTAL DETAILS: Anticancer human tumor 521955-158-R2-J5-PDC cell line growth inhibition [RAS];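 further: spheroids also contain HUVEC endothelial cells and mesenchymal stem cells as stroma; compound exposure lasted seven days before the viability read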
# STUDY CONDITIONS: second compound 0.0949 µM; first compound 10 µM; stronger effect = lower value
# Description: RAS pathway inhibitors in Combinations in Complex Spheroids A high-throughput screen of multi-cell type tumor spheroids was designed to identify active combinations of RAS pathway inhibitors and targeted small molecules. Complex spheroids include a stromal component modeled by human endothelial cells (HUVEC) and fibroblasts modeled by human mesenchymal stem cells (MSCs). […] Compounds. […] If the clinical Cmax for an agent had not been determined, the highest concentration tested was 10 microM. […]
The label is MET for viability, T/C below 10% and NOT MET for viability, T/C equal to or exceeding 10%.

Input: Could you please tell me whether viability, T/C recorded for CC1(O)CCCC1n1c(=O)c(C(F)F)cc2cnc(NC3CCN(S(C)(=O)=O)CC3)nc21 (stereo unspecified) + CCn1c(-c2cccnc2C(C)OC)c2c3cc(ccc31)N1CCOC(CC(NC(=O)C(C(C)C)N(C)C(=O)C3(F)CCN(C(=O)C#CC(C)(C)N(C)C)CC3)C(=O)N3CCCC(N3)C(=O)OCC(C)(C)C2)C1 is less than 10%?
Output: NOT MET

Input: Could you please tell me whether viability, T/C recorded for CC(C)NCC(C(=O)N1CCN(c2ncnc3c2C(C)CC3O)CC1)c1ccc(Cl)cc1 (stereo unspecified) + CCn1c(-c2cccnc2C(C)OC)c2c3cc(ccc31)N1CCOC(CC(NC(=O)C(C(C)C)N(C)C(=O)C3(F)CCN(C(=O)C#CC(C)(C)N(C)C)CC3)C(=O)N3CCCC(N3)C(=O)OCC(C)(C)C2)C1 is less than 10%?
Output: NOT MET

Input: Could you please tell me whether viability, T/C recorded for CC(=O)OC12COC1CC(O)C1(C)C(=O)C(O)C3=C(C)C(OC(=O)C(O)C(NC(=O)OC(C)(C)C)c4ccccc4)CC(O)(C(OC(=O)c4ccccc4)C21)C3(C)C (stereo unspecified) + CCn1c(-c2cc(N3CCN(C)CC3)cnc2C(C)OC)c2c3cc(ccc31)-c1csc(n1)CC(NC(=O)C1CC1C)C(=O)N1CCCC(N1)C(=O)OCC(C)(C)C2 is less than 10%?
Output: MET

Input: Could you please tell me whether viability, T/C recorded for CCC(CC)c1cc(NC2CCC(N)C2)n2nccc2n1 (stereo unspecified) + CCn1c(-c2cccnc2C(C)OC)c2c3cc(ccc31)N1CCOC(CC(NC(=O)C(C(C)C)N(C)C(=O)C3(F)CCN(C(=O)C#CC(C)(C)N(C)C)CC3)C(=O)N3CCCC(N3)C(=O)OCC(C)(C)C2)C1 is less than 10%?
Output: MET

Input: Could you please tell me whether viability, T/C recorded for NC1c2ccccc2OC12CCN(c1cnc3c(N4CCCc5ncccc54)n[nH]c3n1)CC2 (stereo unspecified) + CCn1c(-c2cc(N3CCN(C)CC3)cnc2C(C)OC)c2c3cc(ccc31)-c1csc(n1)CC(NC(=O)C1CC1C)C(=O)N1CCCC(N1)C(=O)OCC(C)(C)C2 is less than 10%?
Output: MET

Input: Could you please tell me whether viability, T/C recorded for Cc1nc(N2CCC3(CC2)COC(C)C3N)c(CO)nc1Sc1ccnc(N)c1Cl (stereo unspecified) + CCn1c(-c2cccnc2C(C)OC)c2c3cc(ccc31)N1CCOC(CC(NC(=O)C(C(C)C)N(C)C(=O)C3(F)CCN(C(=O)C#CC(C)(C)N(C)C)CC3)C(=O)N3CCCC(N3)C(=O)OCC(C)(C)C2)C1 is less than 10%?
Output: NOT MET

====

Hi there, I'd appreciate the recorded viability, T/C for every entry that follows.
# Test system: 521955-158-R2-J5-PDC complex spheroids, viability
# EXPERIMENTAL DETAILS: Anticancer human tumor 521955-158-R2-J5-PDC cell line growth inhibition [RAS];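 further: spheroids also contain HUVEC endothelial cells and mesenchymal stem cells as stroma; compound exposure lasted seven days before the viability read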
# STUDY CONDITIONS: second compound 0.0949 µM; first compound 3.16 µM; stronger effect = lower value
# Excerpt: RAS pathway inhibitors in Combinations in Complex Spheroids A high-throughput screen of multi-cell type tumor spheroids was designed to identify active combinations of RAS pathway inhibitors and targeted small molecules. Complex spheroids include a stromal component modeled by human endothelial cells (HUVEC) and fibroblasts modeled by human mesenchymal stem cells (MSCs). […] Compounds. […] If the clinical Cmax for an agent had not been determined, the highest concentration tested was 10 microM. […]
Give just the numeric value; % need not be written.

Input: Entry CC(=O)OC12COC1CC(O)C1(C)C(=O)C(O)C3=C(C)C(OC(=O)C(O)C(NC(=O)OC(C)(C)C)c4ccccc4)CC(O)(C(OC(=O)c4ccccc4)C21)C3(C)C (configuration not stated) + CCn1c(-c2cc(N3CCN(C)CC3)cnc2C(C)OC)c2c3cc(ccc31)-c1csc(n1)CC(NC(=O)C1CC1C)C(=O)N1CCCC(N1)C(=O)OCC(C)(C)C2 needs its viability, T/C filled in; supply it.
Output: 12.1

Input: Entry C[C@@H](NC(=O)c1ncnc(N)c1Cl)c1ncc(C(=O)Nc2cc(C(F)(F)F)c(Cl)cn2)s1 + CCn1c(-c2cccnc2C(C)OC)c2c3cc(ccc31)N1CCOC(CC(NC(=O)C(C(C)C)N(C)C(=O)C3(F)CCN(C(=O)C#CC(C)(C)N(C)C)CC3)C(=O)N3CCCC(N3)C(=O)OCC(C)(C)C2)C1 needs its viability, T/C filled in; supply it.
Output: 60.4
